assay: Stability of compounds in human blood plasma; format: in vitro ADME
Square brackets hold non-standard residues; d marks the D form. Peptide text beside a SMILES is read from it. * marks the point of attachment. Gly(1-amidinopiperidin-4-yl) = N=C(N)N1CCC([C@H](N)C(=O)O)CC1; Tic = O=C(O)[C@@H]1Cc2ccccc2CN1; Cha = N[C@@H](CC1CCCCC1)C(=O)O; NMe(benzyl) = CN(Cc1ccccc1)*; Nle = CCCC[C@H](N)C(=O)O; NHBn = c1ccc(CN*)cc1

{"compound": "CCCC[C@H](NC(=O)[C@@H]1Cc2ccccc2CN1C(=O)[C@@H](NC(=O)[C@H](CC1CCCCC1)NC(C)=O)C1CCN(C(=N)N)CC1)C(=O)NCc1ccccc1 [Compound P68, Ac-Cha-Gpg-Tic-Nle-N(H)Bn] (Ac-[Cha][Gly(1-amidinopiperidin-4-yl)][Tic][Nle]-NHBn)", "Stability (Arbitrary units) Human 6 h": 85}
{"compound": "CCCC[C@H](NC(=O)[C@@H]1Cc2ccccc2CN1C(=O)[C@H](CCCNC(=N)N)NC(=O)[C@H](CC1CCCCC1)NC(C)=O)C(=O)N(C)Cc1ccccc1 [Compound P71, Ac-Cha-Arg-Tic-Nle-N(Me)Bn] (Ac-[Cha]R[Tic][Nle]-{NMe(benzyl)})", "Stability (Arbitrary units) Human 6 h": 107}

---

assay: Stability of compounds in human blood plasma; format: in vitro ADME
Square brackets hold non-standard residues; d marks the D form. Peptide text beside a SMILES is read from it. * marks the point of attachment. ξ: configuration not given here. Gly(1-amidinopiperidin-4-yl) = N=C(N)N1CCC([C@H](N)C(=O)O)CC1; Pro(3R-Ph) = O=C(O)[C@H]1NCC[C@@H]1c1ccccc1; Tic = O=C(O)[C@@H]1Cc2ccccc2CN1; Cha = N[C@@H](CC1CCCCC1)C(=O)O; NMe(benzyl) = CN(Cc1ccccc1)*; ξDisc = O=C(O)C1NCc2ccccc21; Nle = CCCC[C@H](N)C(=O)O

{"compound": "CSCC[C@H](NC(=O)[C@@H]1Cc2ccccc2CN1C(=O)[C@@H](NC(=O)[C@H](CC1CCCCC1)NC(C)=O)C1CCN(C(=N)N)CC1)C(=O)N1CC[C@H](c2ccccc2)[C@H]1C(N)=O [Compound P80, Ac-Cha-Gpg-Tic-Met-βPhProNH2] (Ac-[Cha][Gly(1-amidinopiperidin-4-yl)][Tic]M[Pro(3R-Ph)]-NH2)", "Stability (Arbitrary units) Human 6 h": 139}
{"compound": "CSCC[C@H](NC(=O)C1c2ccccc2CN1C(=O)[C@H](CCCNC(=N)N)NC(=O)[C@H](CC1CCCCC1)NC(C)=O)C(N)=O (stereo partly drawn) [Compound P12-1, Ac-Cha-Arg-Disc-Met-NH2] (Ac-[Cha]R[ξDisc]M-NH2)", "Stability (Arbitrary units) Human 6 h": 75}
{"compound": "CCCC[C@H](NC(=O)[C@@H]1Cc2ccccc2CN1C(=O)[C@@H](NC(=O)[C@H](CC1CCCCC1)NC(C)=O)C1CCN(C(=N)N)CC1)C(=O)N(C)Cc1ccccc1 [Compound P74, Ac-Cha-Gpg-Tic-Nle-N(Me)Bn] (Ac-[Cha][Gly(1-amidinopiperidin-4-yl)][Tic][Nle]-{NMe(benzyl)})", "Stability (Arbitrary units) Human 6 h": 114}
